Data credit: ChEMBL document CHEMBL5030530

# TEST METHOD NOTES: Selectivity index, ratio of IC50 for equine serum BuChE using butyrylthiocholine chloride as substrate to IC50 for electric eel AChE using acetylthiocholine iodide as substrate incubated for 15 to 20 mins by Ellman's method
# SETTINGS: time 15-20 min
Ratio IC50 of 5 or higher: Fulfilled. Under 5: Not fulfilled.

As a guide, the following entries are already answered.
INSERT INTO assay_data (compound, qualitative_label) VALUES
  ('CC(C)=CCOc1ccc2c(c1)OC(c1ccc(C)cc1C)CC2=O (stereo unspecified)', 'Not fulfilled'),
  ('CC(C)=CCOc1cc(O)c2c(c1)OC(c1ccc(Cl)cc1)CC2=O (stereo unspecified)', 'Fulfilled'),
  ('CC(C)=CCOc1ccc2c(c1)OC(c1ccccc1)CC2=O (stereo unspecified)', 'Not fulfilled'),
  ('COc1ccc(C2CC(=O)c3ccc(OCC=C(C)C)cc3O2)c(OC)c1 (stereo unspecified)', 'Fulfilled'),
  ('CC(C)=CCOc1ccc2c(c1)OC(c1ccc(C)cc1)CC2=O (stereo unspecified)', 'Not fulfilled'),
  ('CC(C)=CCOc1cc(O)c2c(c1)OC(c1ccccc1F)CC2=O (stereo unspecified)', 'Fulfilled'),
  ('CC(C)=CCOc1ccc2c(c1)OC(c1ccc(F)cc1)CC2=O (stereo unspecified)', 'Not fulfilled'),
  ('CC(C)=CCOc1ccc2c(c1)OC(c1cccc(Cl)c1)CC2=O (stereo unspecified)', 'Not fulfilled');

Lookup: Has CC(C)=CCOc1cc(O)c2c(c1)OC(c1ccc(C)cc1C)CC2=O (stereo unspecified) a recorded Ratio IC50 greater than or equal to 5?
Found: Fulfilled

Lookup: Has CC(C)=CCOc1cc(O)c2c(c1)OC(c1cccc(Br)c1)CC2=O (stereo unspecified) a recorded Ratio IC50 greater than or equal to 5?
Found: Fulfilled

Lookup: Has CC(C)=CCOc1cc(O)c2c(c1)OC(c1ccc(Br)cc1)CC2=O (stereo unspecified) a recorded Ratio IC50 greater than or equal to 5?
Found: Fulfilled
